Value source: patent US8461328B2

measured.on: TYK2 (Homo sapiens, UniProt P29597)
endpoint.name: pKi
Entry type: numeric. Quantity: pKi, the -log10 of concentration in molar units.

Here's what some known entries look like.
[
  {
    "molecule": "CC(C)(O)[C@H]1CC[C@@H](n2cnc3cnc4[nH]ccc4c32)CC1",
    "recorded.result": 6.76
  },
  {
    "molecule": "c1cc2c(ncc3ncn(CC4CCNC4)c32)[nH]1 (racemic)",
    "recorded.result": 5.46
  },
  {
    "molecule": "CNC(=O)OC1CCC(n2cnc3cnc4[nH]ccc4c32)CC1 (centres unmarked)",
    "recorded.result": 7.20
  },
  {
    "molecule": "CC1CC(n2cnc3cnc4[nH]ccc4c32)CCN1Cc1ccccc1 (racemic)",
    "recorded.result": 7.08
  },
  {
    "molecule": "CC(C)(C)OC(=O)NC1CCCC(n2cnc3cnc4[nH]ccc4c32)C1 (single isomer, unassigned) [Example 475]",
    "recorded.result": 5.65
  },
  {
    "molecule": "N#CCCN1CCC(n2c(CC(=O)N3CCOCC3)nc3cnc4[nH]ccc4c32)CC1",
    "recorded.result": 7.00
  },
  {
    "molecule": "N#CCCN1CCC(n2c(CC(=O)N3CC(F)(F)C3)nc3cnc4[nH]ccc4c32)CC1",
    "recorded.result": 6.59
  }
]

Next molecule, pKi to be filled in.
Briefly, pKi measured for `CC1(n2cnc3cnc4[nH]ccc4c32)CCN(Cc2cncs2)CC1` : 6.67

* * *

measured.on: TYK2 (Homo sapiens)
Sequence (P29597 873-1187): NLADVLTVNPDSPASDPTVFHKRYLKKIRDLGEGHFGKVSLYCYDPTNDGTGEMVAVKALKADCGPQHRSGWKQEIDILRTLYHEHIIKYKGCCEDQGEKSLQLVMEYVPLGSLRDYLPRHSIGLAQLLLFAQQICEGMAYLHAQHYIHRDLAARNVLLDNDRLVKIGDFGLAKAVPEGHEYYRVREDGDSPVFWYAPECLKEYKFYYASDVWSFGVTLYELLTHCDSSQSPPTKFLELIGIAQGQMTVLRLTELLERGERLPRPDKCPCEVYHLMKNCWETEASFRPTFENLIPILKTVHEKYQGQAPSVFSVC
I'd appreciate it if you could label each record using Ki and these ranges: lowest: < 40 nM; middle: ≥ 40 nM and < 300 nM; highest: ≥ 300 nM

See these solved cases before continuing.
[
  {
    "compound": "N#Cc1nc2cnc3[nH]ccc3c2n1C1CCNCC1",
    "class": "highest"
  },
  {
    "compound": "CC(O)c1nc2cnc3[nH]ccc3c2n1CC1CCCO1 (stereo not drawn) [Example 700]",
    "class": "highest"
  },
  {
    "compound": "c1ccc(CN2CCC[C@@H](n3nnc4cnc5[nH]ccc5c43)C2)cc1",
    "class": "middle"
  },
  {
    "compound": "CC(C)S(=O)(=O)NCc1nc2cnc3[nH]ccc3c2n1C1CCN(CCC#N)CC1",
    "class": "highest"
  },
  {
    "compound": "CCn1cc(CN2CCC(n3c([C@@H](C)O)nc4cnc5[nH]ccc5c43)CC2)cn1",
    "class": "highest"
  },
  {
    "compound": "N[C@H]1CC[C@@H](n2cnc3cnc4[nH]ccc4c32)CC1",
    "class": "middle"
  },
  {
    "compound": "C[C@@H](O)c1nc2cnc3[nH]ccc3c2n1C1CCCCC1 [Example 672]",
    "class": "lowest"
  },
  {
    "compound": "Cc1nc2cnc3[nH]ccc3c2n1[C@H]1CC[C@@H](NCC(F)(F)F)C1",
    "class": "lowest"
  }
]

Okay, now this compound:
-- ask Category of Cc1nc2cnc3[nH]ccc3c2n1C1CCC(NC(=O)CC#N)C1 (racemic) , please.
-- reply lowest
